# EXPERIMENTAL_SYSTEM: T1, canine OX40L, full length membrane form, expressed on HEK293 cells (canine)
# T1 construct: also called OX40L expressing HEK; HEK OX40L cells
# T1 chain: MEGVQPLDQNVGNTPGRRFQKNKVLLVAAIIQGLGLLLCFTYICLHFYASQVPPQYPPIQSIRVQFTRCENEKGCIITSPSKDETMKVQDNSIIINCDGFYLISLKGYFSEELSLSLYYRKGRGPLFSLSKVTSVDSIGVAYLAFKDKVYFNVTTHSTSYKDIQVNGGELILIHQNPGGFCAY
# EXPERIMENT_SUMMARY: flow cytometry, OX40L HEK minus WT HEK
# Method: CHO supernatants diluted in FACS buffer (PBS containing 3% FBS) at 1, 5 or 10 μg/ml were used to screen for their binding capacity to canine OX40L using a cell-based assay. In brief, HEK293 or MEF cells (or any other commonly used cell lines) expressing canine OX40L at the cell surface are incubated with 100 μll of FACS buffer containing the candidate antibody for 30′ on ice. Cells are washed with 150 μl FACS buffer followed by centrifugation at 300 g for 3 min. […]
ENDPOINT: GEO mean difference
No unit in the answer, please; the number alone is enough.

Problem: // GEO mean difference lookup, key: PMX088 (antibody, V domains shown) VH: EVQLVESGGDLVKPGGSLRLSCVASGFTFNTYHMNWVRQAPGKGLHWVAFINSGGTGTGYSDTVKGRFTISRDYAKNTLYLQMNSLRAEDTAVYYCVSGSIWTHFDYWGQGTLVTVSS VL: SYVLTQLPSVSMTLRQTAHITCGGDIIGSKSVYWYQQKLGQAPVLIIYRDTNRPTGIPERFSGASSGNTATLTISGALAEDEADYYCQVWDSNTQAVFGGGTHLTVL
Solution: 775000

Problem: Now consider PMX050 (antibody, V domains shown, also called PMX50) VH: EVQLVESGGDLVKPEGSLRLSCVVSGFTFTTYDMSWVRQAPGKGLQWVAYITNDGRITTYTDAVKGRFTISRDNAKNTLYLQMNSLRTVDTGVYYCARHSSSWSRGRFGLDYWGHGTSVFVSS VL: SYVLTQLPSKNVTLKQPAHITCGGDNIGRKGVHWYQQKLGQAPVLIIYYDSSRPTGIPERFSGANSGNTATLTISGALAEDEADYYCQVWDNSASVFGGGTHLTVL .
Solution: 3.06e+06

Problem: Now consider PMX029 (antibody, V domains shown, also called PMX29) VH: EVQLVESGGDLVKPGGSLRLSCVASGFTFSSYHMNWVRQAPGKGLQWVAYINTGGSRTSYADAVKGRFTISRDNAKNTLYLQMNSLRAEDTAVYYCANNYWDNFDSWGQGTLVTVSS VL: SYELTQPPSVNVTLRETAHITCGGDSIGSKYVQWIQQNPGQAPVVIIYKDTNRPTGIPERFSGANSGNTATLTISGALAEDEADYYCQVGDSGTKASVFGGGTHLTVL .
Solution: 1.06e+06

Problem: Now consider PMX049 (antibody, V domains shown, also called PMX49) VH: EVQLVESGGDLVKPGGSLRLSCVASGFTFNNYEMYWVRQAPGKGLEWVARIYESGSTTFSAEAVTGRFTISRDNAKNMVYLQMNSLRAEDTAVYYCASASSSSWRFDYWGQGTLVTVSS VL: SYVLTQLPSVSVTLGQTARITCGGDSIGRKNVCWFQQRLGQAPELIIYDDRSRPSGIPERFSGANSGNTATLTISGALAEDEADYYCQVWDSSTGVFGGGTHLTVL .
Solution: 3.48e+06

Problem: Now consider PMX032 (antibody, V domains shown, also called PMX32) VH: EVQLVESGGDLVKPGGSLRLSCVASGFTFSSYHMSWVRQAPGKGLQWVAYITSGGRTTSYADAVKGRFIISRDNAKNTLYLQMNSLRAEDTAVYYCASDLVLILGGADYWGQGTLVTVSS VL: SYELTQPPSVNVTLRETAHITCGGDSIGRKYVQWIQQNPGQAPVVIIYKDNNRPTGIPERFSGANSGNTATLTISGALAEDEADYYCQVGDSGSKAVFGGGTHLTVL .
Solution: 1.42e+06

Value source: patent US20250340659A1
